molecular target: MCR5 (human, UniProt P33032 1-325); assay: cell-based or functional assay
Sequence (P33032 whole entry): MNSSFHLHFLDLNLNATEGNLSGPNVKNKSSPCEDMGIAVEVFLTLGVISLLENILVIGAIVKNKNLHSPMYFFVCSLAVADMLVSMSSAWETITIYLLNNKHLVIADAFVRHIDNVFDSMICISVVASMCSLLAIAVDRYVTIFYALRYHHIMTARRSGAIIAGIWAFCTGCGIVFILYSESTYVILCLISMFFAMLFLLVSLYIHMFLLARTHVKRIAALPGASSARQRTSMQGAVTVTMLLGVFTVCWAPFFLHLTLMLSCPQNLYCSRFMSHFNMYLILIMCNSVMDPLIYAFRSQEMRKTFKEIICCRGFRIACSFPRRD
Square brackets hold non-standard residues; d marks the D form. Ends that are not written are not given here. Nle = CCCC[C@H](N)C(=O)O
Measured MCR5 EC50 (nM); cAMP production, LANCE cAMP assay, CHO-MCR5 cells, cell pool C of individual entries
measurementKind: MCR5 EC50 (nM); cAMP production, LANCE cAMP assay, CHO-MCR5 cells, cell pool C

SYSMEHFRWGKPVGKKRRAVKVYPGGGSSYS[Nle]EH[dF]RWGKPV [ACTH1-24-point-5-4aa-NDP-α-MSH] ... 20
SYSXEHXRWGKPVGKKRRPVKVYP (Nle and DPhe as printed: SYS-Nle-EH-DPhe-RWGKPVGKKRRPVKVYP) [NDP-ACTH] ... 1.1
SYSMEHFRWGKPVGAARRPVKVYPGGGSSYS[Nle]EH[dF]RWGKPV (ends and bridges not checked) [ACTH1-24-point-1-2-4aa-NDP-α-MSH] ... 11
SYSMEHFRWGKPVGAARRPVKVYPGGGGSGGGGSSYS[Nle]EH[dF]RWGKPV (ends and bridges not checked) [ACTH1-24-point-1-2-10aa-NDP-α-MSH] ... 13
SYSMEHFRWGKPVGKKAAAVKVYPGGGSSYS[Nle]EH[dF]RWGKPV (ends and bridges not checked) [ACTH1-24-point-3-5-4aa-NDP-α-MSH] ... 14
SYSMEHFRWGKPVGKKRRAVKVYPGGGGSGGGGSSYS[Nle]EH[dF]RWGKPV [ACTH1-24-point-5-10aa-NDP-α-MSH] ... 11
Ac-SYS[Nle]EH[dF]RWGKPVGGGGSGGGGSSYSMEHFRWGKPVGKKRRPVKVYP [NDP-α-MSH-linker-linker-ACTH1-24] ... 9.8
